experimental target: HLA-A*33:01
experiment: IEDB peptide-MHC binding, purified MHC/competitive/radioactivity; filed as Kd, often an IC50 or EC50 that approximates it; bounds were set here for any values at or beyond the usual limits of such assays
conditions: source organism: Vaccinia virus WR
pKd: −log10 of the molar value.
readout name: pKd

Request: Give its pKd value. Item: KSDNIINIGY
Response: ≤ 4.31

Request: Give its pKd value. Item: QLPKRGVRVR
Response: ≤ 4.15

Request: Give its pKd value. Item: PFKVINLPK
Response: ≤ 4.11

Request: Give its pKd value. Item: IISEEYLSK
Response: ≤ 4.23

Request: Give its pKd value. Item: ITTDDLVKSY
Response: ≤ 4.15

Request: Give its pKd value. Item: SFSNTIQSY
Response: ≤ 4.11

====

experimental target: HLA-A*02:02
experiment: IEDB peptide-MHC binding, purified MHC/competitive/radioactivity; filed as Kd, often an IC50 or EC50 that approximates it; bounds were set here for any values at or beyond the usual limits of such assays
conditions: source organism: Vaccinia virus WR
readout name: pKd
Remember the convention: pKd equals -log10 of concentration in molar.

Request: Return pKd measured with HLA-A*02:02 given this sequence: RLRYNLCKYL
Response: 6.58

Request: Return pKd measured with HLA-A*02:02 given this sequence: FVATFRDMLL
Response: 9.16

Request: Return pKd measured with HLA-A*02:02 given this sequence: YVGDTSMMVI
Response: 6.39

Request: Return pKd measured with HLA-A*02:02 given this sequence: NVIGLIVIL
Response: 7.07

Request: Return pKd measured with HLA-A*02:02 given this sequence: TINVNSLAL
Response: 5.70

Request: Return pKd measured with HLA-A*02:02 given this sequence: TIAHINTLI
Response: 7.67

Request: Return pKd measured with HLA-A*02:02 given this sequence: LAYYNSCMLT
Response: 7.92

====

Please respond with reported pKd for every item in the list.
experimental target: HLA-B*35:01
experiment: IEDB peptide-MHC binding, purified MHC/competitive/radioactivity; filed as Kd, often an IC50 or EC50 that approximates it; bounds were set here for any values at or beyond the usual limits of such assays
conditions: source organism: Vaccinia virus WR
pKd: −log10 of the molar value.

Request: Return pKd measured with HLA-B*35:01 given this sequence: DPQNAAVNV
Response: ≤ 4.11

Request: Return pKd measured with HLA-B*35:01 given this sequence: DPEKFNARMA
Response: ≤ 4.16

Request: Return pKd measured with HLA-B*35:01 given this sequence: EPVVKDKIKL
Response: ≤ 4.16

====

experimental target: HLA-A*29:02
experiment: IEDB peptide-MHC binding, purified MHC/competitive/radioactivity; filed as Kd, often an IC50 or EC50 that approximates it; bounds were set here for any values at or beyond the usual limits of such assays
conditions: source organism: SARS coronavirus Tor2
Please respond with reported Kd for every item in the list.

Request: Give its Kd value. Item: AWPLIVTAL
Response: ≥ 75 µM

Request: Give its Kd value. Item: AFEKMVSLL
Response: ≥ 27.4 µM

Request: Give its Kd value. Item: YQCGHYTHI
Response: ≥ 25 µM

Request: Give its Kd value. Item: AFLIGANYL
Response: ≥ 26.6 µM

====

experimental target: HLA-B*18:01
experiment: IEDB peptide-MHC binding, purified MHC/competitive/radioactivity; filed as Kd, often an IC50 or EC50 that approximates it; bounds were set here for any values at or beyond the usual limits of such assays
conditions: source organism: SARS coronavirus Tor2
readout name: Kd

Request: Give its Kd value. Item: GETALALLLL
Response: ≥ 48.1 µM

Request: Give its Kd value. Item: PEYFNSVCRL
Response: ≥ 70.5 µM

Request: Give its Kd value. Item: KEGIVWVAT
Response: ≥ 62.8 µM

====

Please respond with reported IC50 for every item in the list.
experimental target: HLA-A*02:01
experiment: IEDB peptide-MHC binding, purified MHC/competitive/fluorescence; bounds were set here for any values at or beyond the usual limits of such assays
conditions: source organism: Vaccinia virus Copenhagen

Request: Give its IC50 value. Item: LYQLLEAVY
Response: ≥ 72.8 µM

Request: Give its IC50 value. Item: LNASQYANC
Response: ≥ 1400 µM

Request: Give its IC50 value. Item: KLNGAMVEY
Response: ≥ 95.4 µM

====

Please respond with reported pKd for every item in the list.
experimental target: HLA-A*30:02
experiment: IEDB peptide-MHC binding, purified MHC/competitive/radioactivity; filed as Kd, often an IC50 or EC50 that approximates it; bounds were set here for any values at or beyond the usual limits of such assays
conditions: source organism: SARS coronavirus Tor2
pKd: −log10 of the molar value.

Request: Return pKd measured with HLA-A*30:02 given this sequence: AFEKMVSLL
Response: ≤ 4.09

Request: Return pKd measured with HLA-A*30:02 given this sequence: QFLYLYALI
Response: ≤ 4.57

Request: Return pKd measured with HLA-A*30:02 given this sequence: AWPLIVTAL
Response: ≤ 4.42

====

Please respond with reported pKd for every item in the list.
experimental target: HLA-A*02:03
experiment: IEDB peptide-MHC binding, purified MHC/competitive/radioactivity; filed as Kd, often an IC50 or EC50 that approximates it; bounds were set here for any values at or beyond the usual limits of such assays
conditions: source organism: Vaccinia virus WR
pKd: −log10 of the molar value.

Request: Give its pKd value. Item: NILGGVLHT
Response: ≤ 4.69

Request: Give its pKd value. Item: KIQLFSDFTI
Response: ≤ 4.15

Request: Give its pKd value. Item: ETIQKDINI
Response: ≤ 4.29

Request: Give its pKd value. Item: EIDVSEVKT
Response: ≤ 4.11

====

experimental target: HLA-A*11:01
experiment: IEDB peptide-MHC binding, purified MHC/competitive/radioactivity; filed as Kd, often an IC50 or EC50 that approximates it; bounds were set here for any values at or beyond the usual limits of such assays
conditions: source organism: Vaccinia virus WR
Please respond with reported Kd for every item in the list.

Request: Give its Kd value. Item: EVGSIRCVKY
Response: ≥ 69.8 µM

Request: Give its Kd value. Item: PLFDFVNEKY
Response: ≥ 69.8 µM

Request: Give its Kd value. Item: AAKYVEHDPR
Response: ≥ 39 µM

Request: Give its Kd value. Item: DTSNNIAEY
Response: ≥ 5 µM

====

Please respond with reported pKd for every item in the list.
experimental target: HLA-A*03:01
experiment: IEDB peptide-MHC binding, purified MHC/competitive/radioactivity; filed as Kd, often an IC50 or EC50 that approximates it; bounds were set here for any values at or beyond the usual limits of such assays
conditions: source organism: Vaccinia virus WR
pKd: −log10 of the molar value.

Request: Give its pKd value. Item: SMDVLAEKKY
Response: ≤ 4.55

Request: Give its pKd value. Item: DTSNNIAEY
Response: ≤ 4.11

Request: Give its pKd value. Item: PVETLFGSY
Response: ≤ 4.41

Request: Give its pKd value. Item: DSFLRKIGDK
Response: ≤ 4.23

Request: Give its pKd value. Item: ITTDDLVKSY
Response: ≤ 4.15

====

Please respond with reported Kd for every item in the list.
experimental target: HLA-A*26:01
experiment: IEDB peptide-MHC binding, purified MHC/competitive/radioactivity; filed as Kd, often an IC50 or EC50 that approximates it; bounds were set here for any values at or beyond the usual limits of such assays
conditions: source organism: SARS coronavirus Tor2

Request: Give its Kd value. Item: AWPLIVTAL
Response: 17.7 µM

Request: Give its Kd value. Item: TSNPKTPKY
Response: ≥ 56.4 µM

Request: Give its Kd value. Item: TCDGNTFTY
Response: ≥ 38.6 µM

Request: Give its Kd value. Item: CYGVSATKL
Response: ≥ 77.9 µM

Request: Give its Kd value. Item: AFLIGANYL
Response: ≥ 77.9 µM

Request: Give its Kd value. Item: ISMMGFKMNY
Response: 5.45 µM

Request: Give its Kd value. Item: VWTLMNVITL
Response: 1.5 µM

====

experimental target: HLA-A*02:03
experiment: IEDB peptide-MHC binding, purified MHC/competitive/radioactivity; filed as Kd, often an IC50 or EC50 that approximates it; bounds were set here for any values at or beyond the usual limits of such assays
conditions: source organism: Vaccinia virus WR
readout name: pKd
Remember the convention: pKd equals -log10 of concentration in molar.

Request: Give its pKd value. Item: YTFAISYCRA
Response: 7.42

Request: Give its pKd value. Item: LTNAISSRV
Response: 7.73

Request: Give its pKd value. Item: NVQSLIKFI
Response: 5.22

Request: Give its pKd value. Item: SQAKKPEVRI
Response: 5.63

Request: Give its pKd value. Item: KIDILQMREI
Response: 6.38

Request: Give its pKd value. Item: PLHIVCSKTV
Response: 5.28

Request: Give its pKd value. Item: DIKYISRDEL
Response: 5.02

Request: Give its pKd value. Item: ALKNSQAEL
Response: 7.77

Request: Give its pKd value. Item: GLYIPGTSV
Response: 7.78

Request: Give its pKd value. Item: SVDIETAIRA
Response: 5.12

Request: Give its pKd value. Item: VMDTLNGIMM
Response: 5.29

Request: Give its pKd value. Item: NLLEQLIENI
Response: 5.84

Request: Give its pKd value. Item: NIYRLFTRCA
Response: 6.86

Request: Give its pKd value. Item: SLSNLDFRL
Response: 5.75

Request: Give its pKd value. Item: EMQLKIDKLT
Response: 5.17

Request: Give its pKd value. Item: NTISGNIYSA
Response: 6.50

Request: Give its pKd value. Item: NVDVGCLLT
Response: 4.85

Request: Give its pKd value. Item: PMSRLFMDEI
Response: 6.14

Request: Give its pKd value. Item: TVGMSIVCIV
Response: 6.33

Request: Give its pKd value. Item: GVSGLYIPGT
Response: 5.67

Data origin: the Immune Epitope Database (IEDB)
